assayed_target: T1, human TIM-3 antigen (His-tagged TIM-3 extracellular domain expressed by Ampsource Biopharma Shanghai Inc.) (human, UniProt Q8TDQ0 22-202)
T1 construct: extracellular domain; also called TIM-3-His; not shown: His tag
assay_overview: BLI (ForteBio Octet) as stated; antibody captured by anti-human IgG Fc, antigen in solution, 1:1 model
readout_type: kon (M⁻¹ s⁻¹)
Please respond with the number in M⁻¹ s⁻¹ and leave the unit unwritten.

Entry under review: humanized anti-TIM-3 antibody AB12S5 (antibody, V domains shown, it was captured through anti-human IgG Fc) VH: QVQLVQSGAEVKKPGASVKVSCKASGYTFTNYVMHWVRQAPGQRLEWMGWIDPDNDGIKYSQKFQGRVTITRDTSASTAYMELSSLRSEDTAVYYCARDFGYVDWFPYWGQGTTVTVSS VL: DIQMTQSPSSLSASVGDRVTITCQASQDVTTALNWYQQKPGKAPKLLIYSASNLETGVPSRFSGSGSGTDFTFTISSLQPEDIATYYCQQHYSIPPTFGGGTKVEIK . Reported kon?
131000
